System: Plasmodium berghei
assay text: Luciferase/luciferin-expressing antifolate-resistant parasites were used to infect a culture of HepG2 cells that were pre-incubated with compounds. Infected hepatocytes emit light due to the luciferase reaction. Assay results are presented as the percent inhibition of light emission compared to control. […]
Format: functional
assay context: sporozoite, HEPG2TOX_HILL_SLOPE 3.95, HEPG2TOX_R_SQUARED 0.554, PBLUC_HILL_SLOPE 10.4, PBLUC_R_SQUARED 0.356, read-out: LUCIFERASE INFECTION ASSAY - IC50
experimental readout: IC50 (µM)
One number for each entry, in µM.

Fill in reported IC50 for this entry: C=C1CC2(C)C(=CC1=O)CCC1C2CCC2(C)C(O)CCC12 (stereo unspecified)
4.77

Taken from ChEMBL document CHEMBL4483862.
